Record form. Attribute: double positive events. Fill in for each entry.
# Assay Notes: modulators of CD8 T cell-vesicle binding, confirmation, cherry-picked primary hits, two concentrations (AID 2810);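 note: lower values mean blocking of vesicle binding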
# Condition Details: 2C CD8+ T cell-vesicle binding, flow cytometry; CD8+/vesicle+ events; at 15.4 µM; stronger effect = lower value
The whole screen tested about 1,200 compounds, of which about 65 (5%) were called active. Many of the other results were omitted from the sample, so actives are more common in it than they were.
Numbers only, in %.

- Compound: "Cc1cc([N+](=O)[O-])nn1CC(=O)Nc1nccs1"
  double positive events [%]: 19.6
- Compound: "O=C(c1ccc(N2C(=O)C3CC=C(Cl)CC3C2=O)cc1)N1CCCCC1 (stereo unspecified)"
  double positive events [%]: 5.2
- Compound: "O=C(/C(=N\\Nc1ccc(Br)cc1)Sc1nnnn1-c1ccccc1)c1ccccc1"
  double positive events [%]: 14.4
- Compound: "O=C(CN1C(=O)C2CCCN2C(=O)c2ccccc21)Nc1ccccc1-n1cccc1 (stereo unspecified)"
  double positive events [%]: 12.2

Dear colleague, could you send me double positive events for each of the items below? Thanks.
1. O=C(N/N=C/c1cccc(OC(=O)c2ccccc2Cl)c1)c1cccnc1
2. O=C(N/N=C/c1cccc(OCc2ccccc2)c1)c1ccc(Br)cc1
3. CCN(CC)CCNC(=O)CCCNC(=O)Cn1cnc2sc(C)c(C)c2c1=O
4. CCc1c(O)cc2n(c1=O)-c1ccccc1C2(C)C
5. CN(C)S(=O)(=O)c1cccc(-n2sc3ccccc3c2=O)c1
6. O=C(N/N=C/c1ccc(OCc2ccccc2)cc1)c1cccs1

OUT:
1: 10; 2: 0.9; 3: 4.7; 4: 17.9; 5: 2.1; 6: 18.5

IN: Item `c1csc(-c2nc3ccccc3[nH]2)c1` has what recorded double positive events?
OUT: 18.6

###

Record form. Attribute: percent response (vesicle binding). Fill in for each entry.
# Assay Notes: modulators of CD8 T cell-vesicle binding, confirmation, cherry-picked primary hits, two concentrations (AID 2810);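 note: lower values mean blocking of vesicle binding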;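 for percent response (vesicle binding): ratio of mean FL2 vesicle stain of CD8+ cells to that row's control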
# Condition Details: 2C CD8+ T cell-vesicle binding, flow cytometry; response; at 7.7 µM
In all, about 1,200 compounds went through this assay and about 65 (5%) were called active. Many of the other results were omitted from the sample, so actives are more common in it than they were.
Answers are plain numbers, in %.

The following molecules have reported results that may help.
- Smiles: "c1csc(-c2nc3ccccc3[nH]2)c1"
  percent response (vesicle binding), %: 233
- Smiles: "O=C(/C=C/c1ccccc1)OCC(=O)c1ccc[nH]1"
  percent response (vesicle binding), %: 424
- Smiles: "COc1ccc(C(=O)O)cc1S(=O)(=O)Nc1cccc(C)c1"
  percent response (vesicle binding), %: 181
- Smiles: "Cc1cccc(NC(=O)C2CCN(S(=O)(=O)c3c(C)[nH]c(=O)[nH]c3=O)CC2)c1"
  percent response (vesicle binding), %: 330
- Smiles: "CC(=O)c1ccc(Nc2cc(C)nc3nc(C)nn23)cc1"
  percent response (vesicle binding), %: 189

Next item in the queue.
IN: Item `CCc1ccccc1NC(=O)NCc1ccc2c(c1)OCO2` has what recorded percent response (vesicle binding)?
OUT: 479

###

# Assay Notes: modulators of CD8 T cell-vesicle binding, confirmation, cherry-picked primary hits, two concentrations (AID 2810);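 note: lower values mean blocking of vesicle binding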
# Condition Details: 2C CD8+ T cell-vesicle binding, flow cytometry; at 15.4 µM
Out of some 1,200 compounds screened, about 65 (5%) were called active.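 The calls were made as follows: active = at either tested dose, response and 90th-percentile vesicle-stain brightness of CD8 cells under set limits and under 9% cells vesicle-bound; inactive = the rest.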 Only a selection was taken, and actives are over-represented in it overall.
Lab note: assign the record to one of Yes for active, No for inactive

- Compound: "O=C(c1ccco1)N1CCN(C(c2ccccc2Cl)c2nnnn2Cc2ccco2)CC1 (stereo unspecified)"
  Discrete Label: "Yes"
- Compound: "CC(C)NC(=O)NC(=O)COC(=O)c1ccc(F)cc1F"
  Discrete Label: "No"
- Compound: "CCOc1ccccc1NC(=O)C(OC(=O)c1ccccc1O)c1ccccc1 (stereo unspecified)"
  Discrete Label: "No"

Let us examine a further case.
IN: How was COc1cccc(-c2ccc(NC(=O)C3CCCN(Cc4cc(C)[nH]n4)C3)cc2)c1 (stereo unspecified) classified in this test?
OUT: No
